tested on: NCI-H209; experiment: cells; format: functional, cell-based, Homo sapiens; conditions: Homo sapiens, NCI-H209;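 further: growth inhibition of human NCI-H209 cells, measured by a cell viability assay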
Description: SANGER: Inhibition of human NCI-H209 cell growth in a cell viability assay.
measured.metric: IC50

What value of measured IC50 is listed for O=S(=O)(O)c1ccc2cc(/N=N/c3cc(S(=O)(=O)O)c4cccnc4c3O)ccc2c1 ?
> 16 µM

Same lookup for CN(C)CCOc1ccc(-c2nc(-c3ccncc3)c(-c3ccc4c(c3)CC/C4=N\O)[nH]2)cc1 [SB590885] , please.
> 5 µM

Same lookup for Cc1cc(N2CCOCC2)cc2[nH]c(-c3c(NC[C@@H](O)c4cccc(Cl)c4)cc[nH]c3=O)nc12 , please.
> 5.12 µM

# credit: ChEMBL document CHEMBL1201861
